B1: library; numbered along this chain (parent)
chain: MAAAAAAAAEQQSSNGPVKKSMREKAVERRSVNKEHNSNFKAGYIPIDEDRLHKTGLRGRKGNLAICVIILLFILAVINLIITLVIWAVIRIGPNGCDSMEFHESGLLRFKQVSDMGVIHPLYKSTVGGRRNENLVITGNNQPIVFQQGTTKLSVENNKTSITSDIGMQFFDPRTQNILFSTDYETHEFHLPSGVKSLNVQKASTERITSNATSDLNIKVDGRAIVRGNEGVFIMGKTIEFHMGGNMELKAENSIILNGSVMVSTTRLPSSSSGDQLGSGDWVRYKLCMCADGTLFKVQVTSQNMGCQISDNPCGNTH

Variants of: B1
Test: SGCB cell-surface expression functional score (HA stain, bin4 vs bin1, normalised to synonymous) (log10 ratio); higher = more cell-surface SGCB (functional)
If the reported SGCB cell-surface expression functional score (log10) equals or exceeds 0.02, assign Fulfilled. If not, assign Not fulfilled.

// below: answered variants
1) I47F Not fulfilled
2) G274F Not fulfilled
3) V220L Fulfilled
4) R130V Not fulfilled
5) V226K Not fulfilled
6) G274R Not fulfilled
7) V261P Not fulfilled
8) F73Y Fulfilled

-- ask Form field: SGCB cell-surface expression functional score (log10) at least 0.02? Entry: "S99I"
-- reply Not fulfilled

-- ask Form field: SGCB cell-surface expression functional score (log10) at least 0.02? Entry: "I144R"
-- reply Not fulfilled

-- ask Form field: SGCB cell-surface expression functional score (log10) at least 0.02? Entry: "R131T"
-- reply Not fulfilled

-- ask Form field: SGCB cell-surface expression functional score (log10) at least 0.02? Entry: "D215A"
-- reply Not fulfilled

-- ask Form field: SGCB cell-surface expression functional score (log10) at least 0.02? Entry: "A2N"
-- reply Fulfilled

-- ask Form field: SGCB cell-surface expression functional score (log10) at least 0.02? Entry: "N199F"
-- reply Fulfilled
